A short record of IC50 observed with MAPK14 (UniProt Q16539) follows.
Sequence (Q16539 whole entry, looked up): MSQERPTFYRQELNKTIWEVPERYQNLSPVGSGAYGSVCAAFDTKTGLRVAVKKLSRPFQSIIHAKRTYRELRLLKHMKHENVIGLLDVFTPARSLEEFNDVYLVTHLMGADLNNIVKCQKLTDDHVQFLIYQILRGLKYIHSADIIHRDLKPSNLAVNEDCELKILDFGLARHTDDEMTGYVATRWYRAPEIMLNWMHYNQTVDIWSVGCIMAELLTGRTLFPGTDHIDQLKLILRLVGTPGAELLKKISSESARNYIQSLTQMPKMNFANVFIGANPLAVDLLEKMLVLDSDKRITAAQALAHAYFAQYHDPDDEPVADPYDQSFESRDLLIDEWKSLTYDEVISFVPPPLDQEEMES
MEASURED_QUANTITY: IC50

[[record]]
smiles_structure = "Cn1nc(C(C)(C)C)cc1NC(=O)Nc1ccc(OC2CCN(C(=O)C3CC3)CC2)cc1"
measured_quantity = "IC50"
result = "< 5 µM"

[[record]]
smiles_structure = "Cn1nc(C(C)(C)C)cc1NC(=O)Nc1ccc(OC2CCN(C(=O)c3ccc(Cl)nc3)CC2)cc1"
measured_quantity = "IC50"
result = "< 5 µM"

[[record]]
smiles_structure = "Cn1nc(C(C)(C)C)cc1NC(=O)Nc1ccc(CN2CCN(C(=O)c3ccc(F)cc3F)CC2)c(F)c1"
measured_quantity = "IC50"
result = "< 5 µM"

[[record]]
smiles_structure = "Cn1nc(C(C)(C)C)cc1NC(=O)Nc1cc(OC2CCN(C(=O)c3c(F)cccc3F)CC2)cc(C(F)(F)F)c1"
measured_quantity = "IC50"
result = "< 5 µM"


The origin of these recorded values is the Kinase Knowledgebase extract (Sharma et al. 2016).
